Biological target: T1, CD3 on primary human pan T cells (human, UniProt P07766 23-207)
T1 construct: on cells it stands in the TCR/CD3 complex; also called Pan T-cells (CD3-positive); endogenous CD3
T1 sequence (P07766 23-207 limits assumed): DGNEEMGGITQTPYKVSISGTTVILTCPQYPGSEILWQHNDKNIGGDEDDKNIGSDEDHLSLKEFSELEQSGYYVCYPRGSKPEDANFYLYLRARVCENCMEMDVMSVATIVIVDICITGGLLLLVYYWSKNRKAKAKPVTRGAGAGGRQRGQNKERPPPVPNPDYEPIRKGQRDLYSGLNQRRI
Assay: flow cytometry, pan T-cells
readout label: % Binding retained on T-cells, RT (fraction)
Expressed in fraction, but write only the number.

{"binder": "CD3B2082 (scFv) scFv: QVQLVQSGAEVKKPGSSVKVSCKASGYTFTRSTMHWVRQAPGQGLEWMGYINPSSAYTNYAQKFQGRVTLTADKSTSTAYMELSSLRSEDTAVYYCASPQVHYDYNGFPYWGQGTLVTVSSGGSEGKSSGSGSESKSTGGSEIVLTQSPATLSASPGERVTLSCSASSSVSYMNWYQQKPGTSPRRWIYDSSKLASGVPARFSGSGSGRDYTLTISSLEPEDFAVYYCQQWSRNPPTFGGGTKVEIK", "% Binding retained on T-cells, RT / fraction": 1}

-- ask Reported % Binding retained on T-cells, RT for CD3B2035 (scFv) scFv: QVQLVQSGAEVKKPGSSVKVSCKASGYTFTRSTMHWVKQAPGQGLEWMGYINPSSAYTNYNQKFQGRVTLTADKSTSTAYMELSSLRSEDTAVYYCASPQVHYDYNGFPYWGQGTLVTVSSGGSEGKSSGSGSESKSTGGSEIVLTQSPATLSASPGERVTLSCSASSSVSYMNWYQQKPGQAPRRWIYDSSKLASGVPARFSGSGSGRDYTLTISSLEPEDFAVYYCQQWSRNPPTFGGGTKVEIK : what is it?
-- reply 1

-- ask Reported % Binding retained on T-cells, RT for CD3B2086 (scFv) scFv: QVQLVQSGAEVKKPGSSVKVSCKASGYTFTRSTMHWVRQAPGQGLEWMGYINPSSAYTNYAQKFQGRVTLTADKSTSTAYMELSSLRSEDTAVYYCASPQVHYDYNGFPYWGQGTLVTVSSGGSEGKSSGSGSESKSTGGSEIVLTQSPATLSASPGERVTLSCSASSSVSYMNWYQQKPGTSPRRLIYDSSKLASGVPARFSGSGSGRDYTLTISSLEPEDFAVYYCQQWSRNPPTFGGGTKVEIK : what is it?
-- reply 1
